Items are presented alongside their recorded LC retention time.
test: RP, Thermo Scientific Acclaim RSLC 120 C18, 100 × 2.1 mm, 2.2 µm, 30 °C, 0.2 mL/min, estimated dead time 1.1 min; A: 90% water + 10% methanol + 0.01% formic acid + 5 mM ammonium formate, pH 3.61; B: methanol + 0.01% formic acid + 5 mM ammonium formate, pH 3.61; gradient (min/%B) 0/1 1/1 2/39 13/99.9 15/99.9 15.1/1 20.1/1; conditions: stereoisomer not certain
Provide the reading as a plain figure in min.

{"columns": ["compound", "units_label", "endpoint_result"],
 "data": [
  ["CN(CC=Cc1ccccc1)Cc1cccc2ccccc12", "min", 8.52]
]}

Lab note: next compound to report on.
Reported LC retention time for CC(C)[N+]1(C)C2CCC1CC(OC(=O)C(CO)c1ccccc1)C2 (stereo unspecified) : what is it?
4.17

###

experiment: RP, Thermo Scientific Acclaim RSLC 120 C18, 100 × 2.1 mm, 2.2 µm, 30 °C, 0.2 mL/min, estimated dead time 1.1 min; A: 90% water + 10% methanol + 0.01% formic acid + 5 mM ammonium formate, pH 3.61; B: methanol + 0.01% formic acid + 5 mM ammonium formate, pH 3.61; gradient (min/%B) 0/1 1/1 2/39 13/99.9 15/99.9 15.1/1 20.1/1; details: stereoisomer not certain
measured_endpoint: LC retention time (min)
Provide the reading as a plain figure in min.

Solved cases (3 shown):
{"columns": ["molecule", "measured_endpoint", "units_label", "endpoint_result"],
 "data": [
  ["O=C(Nc1cccc2ccccc12)c1cn(CCCCCF)c2ccncc12", "LC retention time", "min", 11.8],
  ["O=C1CN=C(c2ccccc2)c2cc(Cl)ccc2N1CC1CC1", "LC retention time", "min", 10.6],
  ["Clc1ccc(C(Cn2ccnc2)OCc2ccc(Sc3ccccc3)cc2)c(Cl)c1 (centres undefined)", "LC retention time", "min", 13.4]
]}

Lab note: next molecule to report on.
Reported LC retention time for CC(Cc1ccc2c(c1)OCO2)N(C)C (centres undefined) : what is it?
4.08

###

test: RP, Thermo Scientific Acclaim RSLC 120 C18, 100 × 2.1 mm, 2.2 µm, 30 °C, 0.2 mL/min, estimated dead time 1.1 min; A: 90% water + 10% methanol + 0.01% formic acid + 5 mM ammonium formate, pH 3.61; B: methanol + 0.01% formic acid + 5 mM ammonium formate, pH 3.61; gradient (min/%B) 0/1 1/1 2/39 13/99.9 15/99.9 15.1/1 20.1/1; settings: stereoisomer not certain
Assign criterion met to entries whose LC retention time meets or exceeds 7 min; assign criterion not met to the rest.

For orientation, consider the following solved cases.
{"columns": ["molecule", "label_value"],
 "data": [
  ["CCCc1nn(C)c2c(=O)[nH]c(-c3cc(S(=O)(=O)N4CCCCC4)ccc3OCC)nc12", "criterion met"],
  ["NCCCCC(NC(CCc1ccccc1)C(=O)O)C(=O)N1CCCC1C(=O)O (configuration not stated)", "criterion not met"],
  ["COc1cc(NS(=O)(=O)c2ccc(N)cc2)ncn1", "criterion not met"],
  ["Cc1ccc(N=Nc2c(O)ccc3ccccc23)c(C)c1", "criterion met"],
  ["CC(C)(C)N1CCC(c2ccccc2)(c2ccccc2)CC1", "criterion not met"]
]}

Turning now to a further molecule:
Check the entry CN1CCCCC1CCN1c2ccccc2Sc2ccc(S(C)=O)cc21 (configuration not stated) : does LC retention time equal or exceed 7 min?
criterion not met

###

experiment: RP, Thermo Scientific Acclaim RSLC 120 C18, 100 × 2.1 mm, 2.2 µm, 30 °C, 0.2 mL/min, estimated dead time 1.1 min; A: 90% water + 10% methanol + 0.01% formic acid + 5 mM ammonium formate, pH 3.61; B: methanol + 0.01% formic acid + 5 mM ammonium formate, pH 3.61; gradient (min/%B) 0/1 1/1 2/39 13/99.9 15/99.9 15.1/1 20.1/1; conditions: stereoisomer not certain
# if measured LC retention time < 8 min: TRUE  # else: FALSE

Item CN1C2CCC1CC(OC(=O)C(O)c1ccccc1)C2 (stereo not drawn) [Homatropine] : LC retention time beneath 8 min, strictly?
TRUE

Item O=C(Oc1cccc2ccccc12)c1cn(CCCCCF)c2ccccc12 [NM-2201] : LC retention time beneath 8 min, strictly?
FALSE

###

assay: RP, Thermo Scientific Acclaim RSLC 120 C18, 100 × 2.1 mm, 2.2 µm, 30 °C, 0.2 mL/min, estimated dead time 1.1 min; A: 90% water + 10% methanol + 0.01% formic acid + 5 mM ammonium formate, pH 3.61; B: methanol + 0.01% formic acid + 5 mM ammonium formate, pH 3.61; gradient (min/%B) 0/1 1/1 2/39 13/99.9 15/99.9 15.1/1 20.1/1; details: stereoisomer not certain
Items are presented alongside their recorded LC retention time.
Provide the reading as a plain figure in min.

Solved cases (3 shown):
{"columns": ["compound", "endpoint_result"],
 "data": [
  ["Nc1nc2c(ncn2COCCO)c(=O)[nH]1", 2.34],
  ["Nc1nc(=O)n(C2CSC(CO)O2)cc1F (stereo unspecified)", 3.41],
  ["CC(C)NCC(O)c1ccccc1Cl (stereo unspecified)", 4.76]
]}

Reported LC retention time for CCOc1ccc2c3c1OC1C(O)C=CC4C(C2)N(C)CCC341 (stereo unspecified) : what is it?
4.08

Reported LC retention time for CC(NC(C)(C)C)C(=O)c1cccc(Cl)c1 (stereo unspecified) : what is it?
5.76

###

assay: RP, Thermo Scientific Acclaim RSLC 120 C18, 100 × 2.1 mm, 2.2 µm, 30 °C, 0.2 mL/min, estimated dead time 1.1 min; A: 90% water + 10% methanol + 0.01% formic acid + 5 mM ammonium formate, pH 3.61; B: methanol + 0.01% formic acid + 5 mM ammonium formate, pH 3.61; gradient (min/%B) 0/1 1/1 2/39 13/99.9 15/99.9 15.1/1 20.1/1; conditions: stereoisomer not certain
measured_endpoint: LC retention time (min)
Provide the reading as a plain figure in min.

Solved cases (6 shown):
{"columns": ["compound", "units_label", "LC retention time"],
 "data": [
  ["CNCCOC(c1ccccc1)c1ccccc1C (centres undefined) [Orphenadrine-Nor (Tofenacin. Elamol)]", "min", 7.54],
  ["NC1=NCCN1Cc1ccc(Cl)nc1 [Imidacloprid-guanidine]", "min", 11],
  ["O=C(CCCN1CCC(O)(c2ccc(Cl)cc2)CC1)c1ccc(F)cc1 [Haloperidol]", "min", 7.18],
  ["CN(C)C1C(=O)C(C(N)=O)=C(O)C2(O)C(=O)C3=C(O)c4c(O)cccc4C(C)(O)C3C(O)C12 (centres undefined) [Oxytetracycline]", "min", 4.6],
  ["CC(=O)Nc1ccc(S(=O)(=O)Nc2cc(C)on2)cc1 [Sulfamethoxazole-N4-Acetyl (Impurity A)]", "min", 5.28],
  ["CCOC(=O)C(CCc1ccccc1)NC(C)C(=O)N1Cc2ccccc2CC1C(=O)O (centres undefined) [Quinapril]", "min", 9.03]
]}

Reported LC retention time for O=C1CN=C(c2ccccc2F)c2cc(Cl)ccc2N1CCO [Flurazepam-2-OH-Ethyl] : what is it?
8.19

Reported LC retention time for Clc1cccc(N2CCNCC2)c1 [Chlorophenylpiperazine (meta-)<U+00A0>(mCPP)] : what is it?
5.42

Reported LC retention time for CC1C(=O)OC2CCN3CC=C(COC(=O)C(C)(O)C1(C)O)C23 (centres undefined) [Monocrotaline] : what is it?
2.92

Reported LC retention time for CCS(=O)(=O)c1cccnc1S(=O)(=O)NC(=O)Nc1nc(OC)cc(OC)n1 [Rimsulfuron] : what is it?
7.09

Reported LC retention time for CCCc1nn(C)c2c(=O)[nH]c(-c3cc(C(=O)CN4CCN(CC=Cc5ccccc5)CC4)ccc3OCC)nc12 [Cinnamyldenafil] : what is it?
9.28

Reported LC retention time for Cc1cccc(C)c1NC(=O)C1CCCCN1C (centres undefined) [Mepivacaine] : what is it?
4.66

Reported LC retention time for CCCCn1cc(C(=O)c2ccc(C)c3ccccc23)c2ccccc21 [JWH-073-4-Methyl] : what is it?
12.4

Reported LC retention time for CCSc1cc(OC)c(CCN)cc1OC [2CT-2] : what is it?
5.88

Reported LC retention time for CC(C)(C)NCC(O)COc1ccccc1C1CCCC1 (centres undefined) [Penbutolol] : what is it?
9.01

Reported LC retention time for CSc1nc(N=[N+]=[N-])nc(NC(C)C)n1 [Aziprotryne] : what is it?
9.71

Reported LC retention time for CC(=O)c1ccc2c(c1)N(CC(C)N(C)C)c1ccccc1S2 (centres undefined) [Aceprometazine] : what is it?
7.26

Reported LC retention time for CCCCCCCCCCCC(=O)NCC(C)O (centres undefined) [Lauric isopropanolamide] : what is it?
12.1

Reported LC retention time for Cc1cn(C2CC(N=[N+]=[N-])C(CO)O2)c(=O)[nH]c1=O (centres undefined) [Zidovudine] : what is it?
4.56

Measured values drawn from the RepoRT retention time repository (doi:10.1021/acs.analchem.2c02893) for this set.
